These data points were gathered from paper PMC7866863.

Molecular target: Cx43 (connexin 43 gap junction) (Mus musculus, UniProt P23242)
Construct: mouse Cx43 coding region, recombinantly expressed in HeLa donor and biosensor cells
Sequence (P23242 2-382): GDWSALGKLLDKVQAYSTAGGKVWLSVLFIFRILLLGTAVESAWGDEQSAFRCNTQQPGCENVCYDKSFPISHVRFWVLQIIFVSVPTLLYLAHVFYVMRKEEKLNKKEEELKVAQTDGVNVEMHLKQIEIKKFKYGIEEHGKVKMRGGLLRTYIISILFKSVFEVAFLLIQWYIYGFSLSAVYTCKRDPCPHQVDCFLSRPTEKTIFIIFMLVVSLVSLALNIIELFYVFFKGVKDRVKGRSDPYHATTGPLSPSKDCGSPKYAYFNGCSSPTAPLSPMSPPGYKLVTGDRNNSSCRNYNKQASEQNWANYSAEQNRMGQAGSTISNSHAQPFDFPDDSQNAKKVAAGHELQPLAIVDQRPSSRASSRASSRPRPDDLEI
Assay: HeLa coculture cAMP-transfer GloSensor luminescence assay for Cx43 gap junctions
Metric name: IC50 (µM)
Kindly answer with a numeric value in µM, unit omitted.

IN: What does the data say about its IC50? Entry: CC1(C)[C@@H](OC(=O)CCC(=O)O)CC[C@]2(C)[C@H]3C(=O)C=C4[C@@H]5C[C@@](C)(C(=O)O)CC[C@]5(C)CC[C@@]4(C)[C@]3(C)CC[C@@H]12 [carbenoxolone]
OUT: 44.5
